Numbers sourced from PubChem BioAssay (NCI).

Test system: CCRF-CEM leukemia
protocol: NCI tumour cell line growth inhibition, 48 h
quantity: TGI (µM)
Lab book: enter the figure in µM, no units written.

Known TGI results, listed for orientation:
*Q* Quick check: TGI of Cc1cc(N2CCSCC2)nc(NC2CCCC(Nc3ccnc4cc(Cl)ccc34)C2)n1 (stereo not given) ?
*A* 10.9

*Q* Then this molecule: COc1ccc(OC)c(-c2cc(-c3ccc(Cl)cc3)nn2-c2ccc(S(=O)(=O)NC(C)=O)cc2)c1
*A* 73.5

*Q* Then this molecule: SCCSCCCSCCS
*A* 41.5

Continuing:
*Q* Quick check: TGI of Cc1cc(Cl)ccc1NC(=O)C(=O)C(C(=O)c1ccc2ccccc2c1)C1OC(=O)c2ccccc21 (stereo not given) ?
*A* 22.2

*Q* Then this molecule: CC(=O)OC1CC2C(C)(C)C(=O)C=C[C@]2(C)C2CCC3(C)C(=CC(=O)C3c3ccoc3)[C@]12C (stereo not given in full)
*A* 30

*Q* Then this molecule: c1csc(C[N+]23CN4CN(CN(C4)C2)C3)c1
*A* 44.9

* * *

Tested on: IGROV1 ovarian
protocol: NCI tumour cell line growth inhibition, 48 h
quantity: GI50

*Q* Quick check: GI50 of OCC(O)c1nc2ccc3[nH]ncc3c2c2c1CCCC2 (centres undefined) ?
*A* 1380 nM

*Q* Then this compound: COc1cc(CNc2ccccc2C(=O)N2CCN(C(=O)c3cc(-c4cc(OC)c(OC)c(OC)c4)n4nc(-c5ccccc5)cc4n3)CC2)cc(OC)c1OC
*A* 7730 nM

*Q* Then this compound: O=C(/C=C/c1ccccc1)n1c(-c2ccc(Cl)cc2)nc2ccccc21
*A* 1950 nM

Continuing:
*Q* Quick check: GI50 of COC(=O)c1cc(O)c2c(c1C(=O)OC)C[C@H]1[C@@H]3CC=C4C[C@@H](O)CC[C@]4(C)[C@H]3CC[C@]21C ?
*A* 3890 nM

* * *

Test system: A549 NSCLC
protocol: NCI tumour cell line growth inhibition, 48 h
Each entry below lists one item and its recorded GI50 value.

*Q* Quick check: GI50 of CCN(CC)CCCC(C)N=C(C1=C(C(=NC(C)CCCN(CC)CC)c2cccc(OC)c2)C(=O)NC1=O)c1cccc(OC)c1 (stereo not given) ?
*A* 966 nM

*Q* Then this compound: Cc1cn2c(/C=N/N=C(N)N)c(-c3cccs3)nc2s1
*A* 10600 nM

*Q* Then this compound: O=C(/C=C/c1ccccc1)n1c(-c2ccc(Cl)cc2)nc2ccccc21
*A* 1890 nM

*Q* Then this compound: COc1ccc(OC)c2c1[nH]c(=O)c1c3ncccc3cn21
*A* 2830 nM

Shifting focus to the compound that follows.
*Q* Quick check: GI50 of CC(=O)[CH-]C(=O)c1ccccc1.CC(=O)[CH-]C(=O)c1ccccc1.CCOCC[O-].CCOCC[O-].[Ti+4] ?
*A* 28700 nM

* * *

Test system: NCI-H226 lung
protocol: NCI tumour cell line growth inhibition, 48 h
Each entry below lists one item and its recorded GI50 value.

*Q* Notebook entry, NCI-H226 lung assay: GI50 of Cc1nc(N2CCC3(CC2)CO[C@@H](C)[C@H]3N)c(CO)nc1Sc1ccnc(N)c1Cl = ?
*A* 2.14 µM

*Q* Then this compound: CCn1c(-c2cc3ccccc3cc2O)nn(C(=O)c2c(Cl)cccc2Cl)c1=S
*A* 14.2 µM

*Q* Then this compound: Cc1cc(N2CCSCC2)nc(NC2CCCC(Nc3ccnc4cc(Cl)ccc34)C2)n1 (configuration not stated)
*A* 3.2 µM

Continuing:
*Q* Notebook entry, NCI-H226 lung assay: GI50 of COc1ccccc1CNCCCN1C(=O)c2ccc3c4c(ccc(c24)C1=O)C(=O)N(CCCCNCCCN)C3=O = ?
*A* 2.26 µM

*Q* Then this compound: COc1ccc2nc3cc([N+](=O)[O-])ccc3c(NCCCN(C)C)c2c1
*A* 0.251 µM
